Target protein (sequence): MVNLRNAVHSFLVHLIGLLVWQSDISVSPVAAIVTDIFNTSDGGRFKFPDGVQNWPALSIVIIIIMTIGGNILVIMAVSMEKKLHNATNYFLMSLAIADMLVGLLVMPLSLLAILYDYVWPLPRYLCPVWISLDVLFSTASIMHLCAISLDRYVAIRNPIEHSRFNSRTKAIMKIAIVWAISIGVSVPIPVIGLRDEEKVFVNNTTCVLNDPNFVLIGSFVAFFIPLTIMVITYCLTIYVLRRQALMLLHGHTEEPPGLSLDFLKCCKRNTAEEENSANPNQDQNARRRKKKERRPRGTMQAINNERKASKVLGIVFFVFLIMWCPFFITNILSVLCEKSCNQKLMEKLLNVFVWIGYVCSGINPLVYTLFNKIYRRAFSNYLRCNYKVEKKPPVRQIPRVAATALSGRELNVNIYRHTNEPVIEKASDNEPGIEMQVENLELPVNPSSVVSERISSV
Observed Property: IC50 (µM)

Compound | Unit Annotation | IC50
CCCN1CCN(Cc2ccccc2)CC12COc1cccc(OC)c1C2 (stereo unspecified) | µM | 38.9

I: COc1cccc2c1CC1(CCCN1CCCCN1C(=O)CC3(CCCC3)CC1=O)CO2 (racemic)
II: CCCN(CCC)CC1(N(CCC)CCC)COc2cccc(OC)c2C1 (stereo unspecified)
III: CCCN(CCCCN1C(=O)CC2(CCCC2)CC1=O)CC1COc2cccc(OC)c2C1 (stereo unspecified)
IV: O=C1CC2(CCCC2)CC(=O)N1CCCCNCC1COc2ccccc2C1 (stereo unspecified)
V: COc1cccc2c1CC(CNCCCCN1C(=O)CC3(CCCC3)CC1=O)CO2 (stereo unspecified)
# rank by IC50, ascending (min first) Reply format: the labels, ordered as requested.
V, IV, III, I, II
(V: 0.169 µM, IV: 1.23 µM, III: 3.16 µM, I: 10.5 µM, II: 30.2 µM)
